Hey, just so you know, these numbers are from the supplement of paper PMC11150407.

# System: MOLM1 and UCSD/AML1 (averaged)
# PROTOCOL DETAILS: cell viability relative to DMSO control (POC); higher = less growth inhibition
# CONDITION DESCRIPTION: 1 µM; 72 h
Counter-ions that a name gives are not always drawn. Out of some 2,100 compounds screened, about 180 (8.6%) showed an effect of 50% or more. The list comes from a sample in which strong results are over-represented; it also holds close analogues and randomly drawn compounds.

{"MOLECULE": "Cc1cc(O)c(C=O)c(O)c1C(=O)O", "cell viability [%]": 121}
{"MOLECULE": "O=C(O)c1ccccc1", "cell viability [%]": 98.9}
{"MOLECULE": "C[C@@H]1CC[C@@]23CCC4(C)[C@@](C=CC5[C@@]6(C)CC[C@H](O)C(C)(C)C6CC[C@]54C)(OC2=O)C3[C@H]1C (stereo partly specified)", "cell viability [%]": 90.8}
{"MOLECULE": "Cc1ccc(NC(=O)c2ccc(CN3CCN(C)CC3)cc2)cc1Nc1nc(-c2cccnc2)cs1 [Masitinib (AB1010)]", "cell viability [%]": 25.7}
{"MOLECULE": "Nc1ccn([C@@H]2O[C@H](CO)[C@@H](O)[C@@H]2O)c(=O)n1", "cell viability [%]": 8.69}
{"MOLECULE": "CCN(CC)C(=S)SSC(=S)N(CC)CC [Disulfiram (Antabuse)]", "cell viability [%]": 1.33}
{"MOLECULE": "NC(C(=O)O)C(O)C(=O)O (stereo not drawn) [d,l-threo-3-HYDROXYASPARTIC ACID]", "cell viability [%]": 129}
{"MOLECULE": "CC(C)C[C@H](NC(=O)CNC(=O)c1cc(Cl)ccc1Cl)B1OC(=O)C(CC(=O)O)(CC(=O)O)O1", "cell viability [%]": 1.16}
{"MOLECULE": "C[C@@H]1CCN(C(=O)CC#N)C[C@@H]1N(C)c1ncnc2[nH]ccc12", "cell viability [%]": 72.1}
{"MOLECULE": "Cc1cn(-c2cc(NC(=O)c3ccc(C)c(Nc4nccc(-c5cccnc5)n4)c3)cc(C(F)(F)F)c2)cn1 [Nilotinib (AMN-107)]", "cell viability [%]": 50.6}
{"MOLECULE": "CCC(C)C(NC)C(=O)O (stereo unspecified)", "cell viability [%]": 118}
{"MOLECULE": "C=CC[S+]([O-])C[C@H](N)C(=O)O (mixture of isomers)", "cell viability [%]": 89.6}
{"MOLECULE": "CC1=CC(=O)C(C(C)C)=CC1=O", "cell viability [%]": 97.2}
{"MOLECULE": "Oc1cc(O)c2c(c1)O[C@H](c1cc(O)c(O)c(O)c1)[C@H](O)C2", "cell viability [%]": 97.9}
{"MOLECULE": "COc1ccc2oc(-c3ccccc3)c(OC)c(=O)c2c1", "cell viability [%]": 98.7}
{"MOLECULE": "Nc1ccn([C@@H]2O[C@H](CO)[C@@H](O)C2(F)F)c(=O)n1 [Gemcitabine HCl (Gemzar)]", "cell viability [%]": 10.8}
